Value source: ChEMBL document CHEMBL4396964

Target: Fatty acid synthase (Mus musculus, UniProt P19096)
Sequence (P19096 whole entry): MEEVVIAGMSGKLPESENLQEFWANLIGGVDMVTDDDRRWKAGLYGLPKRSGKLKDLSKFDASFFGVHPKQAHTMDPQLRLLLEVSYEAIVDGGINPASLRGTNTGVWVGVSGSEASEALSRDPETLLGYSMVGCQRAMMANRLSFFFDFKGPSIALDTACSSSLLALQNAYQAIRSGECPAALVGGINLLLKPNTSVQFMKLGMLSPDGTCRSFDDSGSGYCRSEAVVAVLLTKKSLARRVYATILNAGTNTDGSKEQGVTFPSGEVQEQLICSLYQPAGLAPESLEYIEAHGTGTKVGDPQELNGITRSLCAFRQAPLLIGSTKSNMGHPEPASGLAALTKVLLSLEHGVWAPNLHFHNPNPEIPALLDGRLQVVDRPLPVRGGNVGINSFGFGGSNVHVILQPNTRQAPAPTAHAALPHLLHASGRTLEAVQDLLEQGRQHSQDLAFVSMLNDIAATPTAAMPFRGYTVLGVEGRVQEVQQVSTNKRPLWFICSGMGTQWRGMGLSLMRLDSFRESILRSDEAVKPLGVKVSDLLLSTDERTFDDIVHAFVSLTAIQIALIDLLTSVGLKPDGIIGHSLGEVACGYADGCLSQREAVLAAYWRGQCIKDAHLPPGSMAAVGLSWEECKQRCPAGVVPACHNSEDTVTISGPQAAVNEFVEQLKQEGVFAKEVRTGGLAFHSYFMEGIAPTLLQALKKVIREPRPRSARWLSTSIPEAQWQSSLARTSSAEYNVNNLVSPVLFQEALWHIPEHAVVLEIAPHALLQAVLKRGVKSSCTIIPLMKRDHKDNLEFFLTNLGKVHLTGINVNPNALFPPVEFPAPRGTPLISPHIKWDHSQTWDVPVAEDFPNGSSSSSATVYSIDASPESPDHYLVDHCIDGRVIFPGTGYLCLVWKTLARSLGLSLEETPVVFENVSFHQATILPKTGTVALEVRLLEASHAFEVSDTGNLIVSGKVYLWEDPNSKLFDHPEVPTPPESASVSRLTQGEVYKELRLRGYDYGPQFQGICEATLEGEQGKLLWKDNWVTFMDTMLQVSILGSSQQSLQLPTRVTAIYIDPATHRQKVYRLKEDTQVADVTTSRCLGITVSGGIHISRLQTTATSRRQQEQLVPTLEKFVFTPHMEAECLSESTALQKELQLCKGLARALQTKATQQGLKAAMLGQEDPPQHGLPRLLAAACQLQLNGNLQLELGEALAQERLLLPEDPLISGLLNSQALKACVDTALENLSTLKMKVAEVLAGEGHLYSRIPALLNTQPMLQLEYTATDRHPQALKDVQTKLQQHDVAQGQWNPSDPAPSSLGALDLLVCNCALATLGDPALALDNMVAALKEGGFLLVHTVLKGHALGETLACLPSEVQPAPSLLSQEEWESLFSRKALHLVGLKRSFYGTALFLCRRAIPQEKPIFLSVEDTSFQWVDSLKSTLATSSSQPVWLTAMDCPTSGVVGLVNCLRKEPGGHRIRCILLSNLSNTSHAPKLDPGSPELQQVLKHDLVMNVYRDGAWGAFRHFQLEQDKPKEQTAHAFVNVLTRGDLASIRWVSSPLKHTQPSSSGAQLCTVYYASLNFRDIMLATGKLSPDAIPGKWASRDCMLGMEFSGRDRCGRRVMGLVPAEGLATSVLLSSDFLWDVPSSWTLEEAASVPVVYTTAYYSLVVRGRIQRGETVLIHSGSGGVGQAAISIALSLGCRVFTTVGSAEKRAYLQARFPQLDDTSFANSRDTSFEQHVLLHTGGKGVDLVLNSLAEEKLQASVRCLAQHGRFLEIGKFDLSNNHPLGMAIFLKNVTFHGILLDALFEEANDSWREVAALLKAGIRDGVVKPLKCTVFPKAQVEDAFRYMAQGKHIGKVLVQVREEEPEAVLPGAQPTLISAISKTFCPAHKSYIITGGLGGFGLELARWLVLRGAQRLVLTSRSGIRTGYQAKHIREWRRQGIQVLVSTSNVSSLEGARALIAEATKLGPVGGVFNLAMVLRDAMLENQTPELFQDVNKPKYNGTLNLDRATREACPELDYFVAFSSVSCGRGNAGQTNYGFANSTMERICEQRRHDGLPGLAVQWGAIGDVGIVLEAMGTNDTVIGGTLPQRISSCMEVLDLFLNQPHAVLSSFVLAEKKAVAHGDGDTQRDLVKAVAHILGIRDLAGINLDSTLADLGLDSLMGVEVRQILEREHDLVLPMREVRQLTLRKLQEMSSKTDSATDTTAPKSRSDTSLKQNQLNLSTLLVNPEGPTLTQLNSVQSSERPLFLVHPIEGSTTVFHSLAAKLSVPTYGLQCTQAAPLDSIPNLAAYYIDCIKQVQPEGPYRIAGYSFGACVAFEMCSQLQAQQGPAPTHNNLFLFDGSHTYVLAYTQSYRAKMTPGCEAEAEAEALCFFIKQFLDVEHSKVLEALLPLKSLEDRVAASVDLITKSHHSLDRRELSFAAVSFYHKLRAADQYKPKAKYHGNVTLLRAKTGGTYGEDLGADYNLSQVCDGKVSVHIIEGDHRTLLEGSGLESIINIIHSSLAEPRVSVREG
Experiment: Inhibition of mouse FAS preincubated for 30 mins in presence of acetyl coenzyme A and NADPH followed by malonyl coenzyme A addition and measured after 3 mins by spectrophotometric analysis
// NB: equality with 20 µM counts as 0 (no); only IC50 strictly below is 1 (yes)

Record CC(C)Cc1ccc(C(C)C(=O)O[C@H]2C(=O)OCC2(C)C)cc1 (stereo not given in full) : is its IC50 strictly below 20 µM?
0 (no)

Same thing, different molecule: CC1(C)COC(=O)[C@@H]1OC(=O)c1ccc(C#N)cc1
0 (no)

Same thing, different molecule: CCCCCCCC(=O)O[C@H]1C(=O)OCC1(C)C
0 (no)

Same thing, different molecule: C=C1C(=O)OC(CCCCCCCC)C1C(=O)O (stereo not given)
1 (yes)

Same thing, different molecule: Cc1ccc(C(=O)O[C@H]2C(=O)OCC2(C)C)cc1
1 (yes)

Same thing, different molecule: CCCC(=O)O[C@H]1C(=O)OCC1(C)C
0 (no)

Same thing, different molecule: CC(=O)O[C@H]1C(=O)OCC1(C)C
0 (no)

Same thing, different molecule: CCCCc1ccc(C(=O)O[C@H]2C(=O)OCC2(C)C)cc1
0 (no)

Same thing, different molecule: CC1(C)COC(=O)[C@@H]1OC(=O)c1ccc(Cl)cc1
1 (yes)

Same thing, different molecule: CCCCCCCCCCCC(=O)O[C@H]1C(=O)OCC1(C)C
1 (yes)

Same thing, different molecule: CC1(C)COC(=O)[C@@H]1OC(=O)c1ccccc1
0 (no)

Same thing, different molecule: COc1ccc(C(=O)O[C@H]2C(=O)OCC2(C)C)cc1
1 (yes)

Same thing, different molecule: CCCCCC(=O)O[C@H]1C(=O)OCC1(C)C
0 (no)

Same thing, different molecule: CC(=O)Oc1cc(C(=O)O[C@H]2C(=O)OCC2(C)C)cc(OC(C)=O)c1OC(C)=O
1 (yes)
